SYSTEM: Aurora A kinase (Homo sapiens)
Construct: purchased Upstate
Sequence (O14965 1-403): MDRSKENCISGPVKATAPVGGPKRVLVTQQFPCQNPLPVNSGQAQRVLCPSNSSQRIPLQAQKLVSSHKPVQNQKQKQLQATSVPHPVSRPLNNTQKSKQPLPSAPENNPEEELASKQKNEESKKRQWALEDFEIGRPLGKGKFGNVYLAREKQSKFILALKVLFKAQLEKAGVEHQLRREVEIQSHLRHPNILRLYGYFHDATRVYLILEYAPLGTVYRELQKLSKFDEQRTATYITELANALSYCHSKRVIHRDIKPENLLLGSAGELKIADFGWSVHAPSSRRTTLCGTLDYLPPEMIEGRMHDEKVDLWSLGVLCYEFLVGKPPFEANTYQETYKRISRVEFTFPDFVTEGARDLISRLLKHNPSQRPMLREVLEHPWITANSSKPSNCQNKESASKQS
TEST DETAILS: Aurora A kinase assay ([γ-33P]ATP, CHOCKtide substrate)
Type: biochemical
EXPERIMENTAL CONDITIONS: 1.0 μM test compound
Lab note: anything with inhibition at 1 µM at or over 10% counts as y; the rest go in n.

>>> answer_label("CCOC(=O)CCc1c(/C=C2\\C(=O)Nc3cc(-c4ccc(F)cc4)ccc32)[nH]c2c1C(=O)CCC2 [DCB-70098]")
"n"
>>> answer_label("CCOC(=O)CCc1c(/C=C2\\C(=O)Nc3ccc(NC(=O)Nc4ccc(Br)cc4)cc32)[nH]c2c1C(=O)CCC2 [DCB-70135]")
"n"
>>> answer_label("CCOC(=O)CCc1c(/C=C2\\C(=O)Nc3ccc(NC(=O)c4ccc([N+](=O)[O-])cc4)cc32)[nH]c2c1C(=O)CCC2 [DCB-70140]")
"y"
>>> answer_label("O=C(O)CCc1c(/C=C2\\C(=O)Nc3ccc(S(=O)(=O)Nc4ccc(F)c(Cl)c4)cc32)[nH]c2c1C(=O)CCCC2 [DCB-70149]")
"y"
>>> answer_label("O=C(O)CCc1c(/C=C2\\C(=O)Nc3ccc(-c4ccc(F)cc4)cc32)[nH]c2c1C(=O)CCC2 [DCB-70109]")
"y"

====

Reported IC50 values follow for various molecules
SYSTEM: Aurora A kinase (Homo sapiens)
Sequence (O14965 1-403): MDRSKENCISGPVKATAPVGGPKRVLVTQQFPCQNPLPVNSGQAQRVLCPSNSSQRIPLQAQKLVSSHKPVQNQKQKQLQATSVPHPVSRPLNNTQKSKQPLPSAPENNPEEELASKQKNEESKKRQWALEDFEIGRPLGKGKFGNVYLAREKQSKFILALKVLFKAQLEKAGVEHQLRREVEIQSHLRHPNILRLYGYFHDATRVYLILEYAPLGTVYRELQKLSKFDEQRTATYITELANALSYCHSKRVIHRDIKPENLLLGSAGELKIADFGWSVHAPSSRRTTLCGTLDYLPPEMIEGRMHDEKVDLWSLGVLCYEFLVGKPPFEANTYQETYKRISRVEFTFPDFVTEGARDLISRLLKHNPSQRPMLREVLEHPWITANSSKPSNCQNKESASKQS
QUANTITY MEASURED: IC50 (nM)

>>> val("O=C(O)CCc1c(/C=C2\\C(=O)Nc3ccc([N+](=O)[O-])cc32)[nH]c2c1C(=O)CCC2")
724
>>> val("O=C(O)CCc1c(/C=C2\\C(=O)Nc3ccc(Br)cc32)[nH]c2c1C(=O)CCC2")
211
>>> val("COc1ccc(-c2ccc3c(c2)/C(=C/c2[nH]c4c(c2CCC(=O)O)C(=O)CCC4)C(=O)N3)cc1OC")
560
